Recorded solubility values for a group of molecules are listed next.
Assay: Solubility of compound at pH 7.4
Type: physicochemical
Conditions: buffer
Form entry: value (µg/mL) — number only.

{"smiles-input": "COc1cc(N(C(=O)CBr)c2ccc3c(c2)OCCO3)cc(OC)c1F", "solubility (µg/mL)": 3.3}

# context switch: different molecule, same solubility
Quick check: solubility of COc1cc(N(C(=O)CCl)c2ccc3c(c2)OCCO3)cc(OC)c1F ?
3.63

----------
Recorded IC50 values for a group of compounds are listed next.
Tested on: MDA-MB-468
Test: Antiproliferative activity against human MDA-MB-468 cells assessed as inhibition of cell viability incubated for 72 hrs by CCK-8 assay
Type: functional, cell-based
Details: MDA-MB-468, 72 h
Record the result as number plus unit.

Example compounds with recorded IC50:
{"smiles-input": "N#Cc1ccc(N(C(=O)CCl)c2ccc3c(c2)OCCO3)cc1", "measurement-label": "IC50", "value-reported": "640 nM"}
{"smiles-input": "COc1ccc(N(C(=O)CCl)c2ccc(OC)c(Cl)c2)cc1", "measurement-label": "IC50", "value-reported": "200 nM"}
{"smiles-input": "COC(=O)c1ccc(N(C(=O)CCl)c2ccc(OC)c(Cl)c2)cc1", "measurement-label": "IC50", "value-reported": "280 nM"}
{"smiles-input": "COc1cc(OC)cc(N(C(=O)CBr)c2ccc3c(c2)OCCO3)c1", "measurement-label": "IC50", "value-reported": "88 nM"}
{"smiles-input": "COc1ccc(N(C(=O)CCl)c2ccc3c(c2)OCO3)cc1Cl", "measurement-label": "IC50", "value-reported": "100 nM"}

Quick check: IC50 of COC(=O)c1ccc(N(C(=O)CCl)c2ccc3c(c2)OCCO3)cc1 ?
1070 nM

Quick check: IC50 of COc1cc(N(C(=O)CCl)c2ccc3c(c2)OCCO3)cc(OC)c1OC ?
96 nM

Where these numbers come from: ChEMBL document CHEMBL5346969
